For each record, write down the corresponding normalised viability.
# Tested on: CAL-85-1
# protocol details: normalised viability (% of control), CellTiter-Blue; higher = more viable cells (about 100 = DMSO control)
# condition details: 10 nM; incubation time: 72 h
Kindly report the value followed by its unit.

| compound | normalised viability |
| --- | --- |
| C=CCN(/C=C1/C(=O)O[C@H](COC)[C@@]2(C)C1=C(O)C(=O)C1=C2[C@H](OC(C)=O)C[C@]2(C)C(=O)CC[C@@H]12)CC=C | 104% |
| CNC(=O)c1ccccc1Sc1ccc2c(/C=C/c3ccccn3)n[nH]c2c1 | 96% |
| CC(C)(C)NC(=O)[C@H]1CC[C@H]2[C@@H]3CC[C@H]4NC(=O)C=C[C@]4(C)[C@H]3CC[C@]12C [Finasteride] | 97% |

// next entry
# input Recall and state the measured normalised viability for CC[C@H](CO)Nc1nc(NCc2ccccc2)c2ncn(C(C)C)c2n1 .
# output 101%

----------
Provide the recorded normalised response for the entries that follow.
# Test system: HDQ-P1
# protocol details: normalised response (% of control), CellTiter-Glo; higher = more viable cells (100 = DMSO, 0 = benzethonium chloride kill control)
# condition details: incubation time: 72 h
Numbers only, in %.

For orientation, consider the following solved cases.
| compound | assayed system | observable | recorded measurement |
| --- | --- | --- | --- |
| CO[C@@]12[C@H](COC(N)=O)C3=C(C(=O)C(C)=C(N)C3=O)N1C[C@@H]1N[C@@H]12 [Mitomycin C] (1 nM) | HDQ-P1 | normalised response | 98.8 |
| CCNC(=O)c1noc(-c2cc(C(C)C)c(O)cc2O)c1-c1ccc(CN2CCOCC2)cc1 [NVP-AUY922] (0.1 nM) | HDQ-P1 | normalised response | 102 |
| CO[C@@H]1[C@H](N(C)C(=O)c2ccccc2)C[C@H]2O[C@]1(C)n1c3ccccc3c3c4c(c5c6ccccc6n2c5c31)C(=O)NC4 [Midostaurin] (1000 nM) | HDQ-P1 | normalised response | 65.1 |
| CC(C)(C)c1nc(-c2cccc(NS(=O)(=O)c3c(F)cccc3F)c2F)c(-c2ccnc(N)n2)s1 [Dabrafenib] (0.25 nM) | HDQ-P1 | normalised response | 104 |
| CCNC(=O)c1noc(-c2cc(C(C)C)c(O)cc2O)c1-c1ccc(CN2CCOCC2)cc1 [NVP-AUY922] (1 nM) | HDQ-P1 | normalised response | 104 |

The following compounds each have a reported value; give each one's normalised response.
1. COc1cc(Nc2c(C#N)cnc3cc(OCCCN4CCN(C)CC4)c(OC)cc23)c(Cl)cc1Cl [Bosutinib] (1000 nM)
2. CNC(=O)c1ccccc1Sc1ccc2c(/C=C/c3ccccn3)n[nH]c2c1 [Axitinib] (1000 nM)
3. CN[C@@H](C)C(=O)N[C@H]1CN(C(=O)CC(C)C)CC[C@H]2CC[C@@H](C(=O)NC(c3ccccc3)c3ccccc3)N2C1=O [AT-406] (10 nM)

# output
1. 51.2
2. 96.8
3. 102

Look up normalised response for the entries below, preserving their order.
1. CC1(C)CCC(c2ccc(Cl)cc2)=C(CN2CCN(c3ccc(C(=O)NS(=O)(=O)c4ccc(N[C@H](CCN5CCOCC5)CSc5ccccc5)c(S(=O)(=O)C(F)(F)F)c4)cc3)CC2)C1 [Navitoclax] (10 nM)
2. CNC(=O)c1ccccc1Sc1ccc2c(/C=C/c3ccccn3)n[nH]c2c1 [Axitinib] (1 nM)
3. CCNC(=O)CCC/C=C\C[C@@H]1[C@@H](/C=C/[C@@H](O)CCc2ccccc2)[C@H](O)C[C@@H]1O [Bimatoprost] (5.5 nM)
4. CC(C)(C)NC(=O)[C@H]1CC[C@H]2[C@@H]3CC[C@H]4NC(=O)C=C[C@]4(C)[C@H]3CC[C@]12C [Finasteride] (10 nM)
5. CC(C)(C)c1nc(-c2cccc(NS(=O)(=O)c3c(F)cccc3F)c2F)c(-c2ccnc(N)n2)s1 [Dabrafenib] (2.5 nM)
6. Cc1cc(Nc2nc(N[C@@H](C)c3ncc(F)cn3)ncc2Cl)[nH]n1 [AZD1480] (100 nM)

# output
1: 87.5; 2: 105; 3: 94.5; 4: 97.3; 5: 105; 6: 102

The origin of these recorded values is the supplement of paper PMC4862054.
